molecular target: recombinant human LSD1 (Homo sapiens); construct: Human LSD1 catalytic domain, consisting of residues 172–833; GST (N); made in house; host or cells: Escherichia coli BL21-CodonPlus; assay: LSD1 enzyme inhibition, HRP-coupled Amplex red assay; assay type: biochemical; details: Table 2; LSD1 versus MAO-A and -B

Molecule: CN1CCN(C(=O)CNC2CC2c2ccc(-c3ccc(F)nc3)cc2)CC1 (racemic) [Compound 2, reference compound]
Target Desc: recombinant human LSD1 (Homo sapiens)
Selectivity index for LSD1: >1,500
--
Molecule: NC1CC1c1ccc(OCc2ccccc2)cc1 (racemic)
Target Desc: recombinant human LSD1 (Homo sapiens)
Selectivity index for LSD1: <0.38
--
Molecule: O=C(CNC1CC1c1ccc(Br)cc1)N1CCNCC1 (racemic)
Target Desc: recombinant human LSD1 (Homo sapiens)
Selectivity index for LSD1: >280
--
Molecule: COc1ccccc1C=NC1CC1c1ccc(Br)cc1 (racemic)
Target Desc: recombinant human LSD1 (Homo sapiens)
Selectivity index for LSD1: <0.54
--
Molecule: NNC1CC1c1ccccc1 (stereo not drawn) [Compound 31, Trans-phenyl cyclopropyl hydrazine]
Target Desc: recombinant human LSD1 (Homo sapiens)
Selectivity index for LSD1: >7
--
Molecule: CN1CCN(C(=O)CNC2CC2c2ccc(Br)cc2)CC1 (racemic) [Compound 3, reference compound]
Target Desc: recombinant human LSD1 (Homo sapiens)
Selectivity index for LSD1: >208
--
Molecule: O=C(CNNC1CC1c1ccccc1)N1CCNCC1 (racemic)
Target Desc: recombinant human LSD1 (Homo sapiens)
Selectivity index for LSD1: >145
--
Molecule: O=C(CNC1CC1c1ccc(Br)cc1)N1CCCCC1 (racemic)
Target Desc: recombinant human LSD1 (Homo sapiens)
Selectivity index for LSD1: <0.82

----------
Measured pIC50, listed per entry.
biological target: UniProt P21397
Sequence (P21397 whole entry): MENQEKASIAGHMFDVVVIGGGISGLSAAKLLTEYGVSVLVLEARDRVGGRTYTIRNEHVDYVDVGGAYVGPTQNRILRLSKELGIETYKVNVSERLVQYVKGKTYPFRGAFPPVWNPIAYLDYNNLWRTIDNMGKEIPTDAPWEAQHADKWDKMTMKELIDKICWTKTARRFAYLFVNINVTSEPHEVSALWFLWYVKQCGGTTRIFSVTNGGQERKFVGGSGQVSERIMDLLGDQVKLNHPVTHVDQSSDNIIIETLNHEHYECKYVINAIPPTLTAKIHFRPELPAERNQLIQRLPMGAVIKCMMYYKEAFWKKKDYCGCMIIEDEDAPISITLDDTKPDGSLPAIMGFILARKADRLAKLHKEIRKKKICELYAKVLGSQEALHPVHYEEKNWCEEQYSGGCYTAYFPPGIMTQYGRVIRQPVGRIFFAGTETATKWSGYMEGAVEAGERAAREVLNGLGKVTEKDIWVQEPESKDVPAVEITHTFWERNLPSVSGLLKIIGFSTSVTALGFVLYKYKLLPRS
pIC50: −log10 of the molar value.
Value Kind: pIC50

Compound: COc1ccccc1C=NC1CC1c1ccc(Br)cc1 (racemic)
Target Desc: UniProt P21397
Measured Result: 6.52
--
Compound: NNC1CC1c1ccccc1 (stereo not drawn) [Compound 31, Trans-phenyl cyclopropyl hydrazine]
Target Desc: UniProt P21397
Measured Result: 4.39
--
Compound: O=C(CNC1CC1c1ccc(Br)cc1)N1CCNCC1 (racemic)
Target Desc: UniProt P21397
Measured Result: 4.74
--
Compound: O=C(CNNC1CC1c1ccccc1)N1CCNCC1 (racemic)
Target Desc: UniProt P21397
Measured Result: 4.01
--
Compound: CN1CCN(C(=O)CNC2CC2c2ccc(Br)cc2)CC1 (racemic) [Compound 3, reference compound]
Target Desc: UniProt P21397
Measured Result: 5.14
--
Compound: NC1CC1c1ccc(OCc2ccccc2)cc1 (racemic)
Target Desc: UniProt P21397
Measured Result: 6.77
--
Compound: O=C(CNC1CC1c1ccc(Br)cc1)N1CCCCC1 (racemic)
Target Desc: UniProt P21397
Measured Result: 6.59
--
Compound: CN1CCN(C(=O)CNC2CC2c2ccc(-c3ccc(F)nc3)cc2)CC1 (racemic) [Compound 2, reference compound]
Target Desc: UniProt P21397
Measured Result: 3.92

----------
Biological target: human MAO-B (Homo sapiens, UniProt P27338)
Sequence (P27338 1-520): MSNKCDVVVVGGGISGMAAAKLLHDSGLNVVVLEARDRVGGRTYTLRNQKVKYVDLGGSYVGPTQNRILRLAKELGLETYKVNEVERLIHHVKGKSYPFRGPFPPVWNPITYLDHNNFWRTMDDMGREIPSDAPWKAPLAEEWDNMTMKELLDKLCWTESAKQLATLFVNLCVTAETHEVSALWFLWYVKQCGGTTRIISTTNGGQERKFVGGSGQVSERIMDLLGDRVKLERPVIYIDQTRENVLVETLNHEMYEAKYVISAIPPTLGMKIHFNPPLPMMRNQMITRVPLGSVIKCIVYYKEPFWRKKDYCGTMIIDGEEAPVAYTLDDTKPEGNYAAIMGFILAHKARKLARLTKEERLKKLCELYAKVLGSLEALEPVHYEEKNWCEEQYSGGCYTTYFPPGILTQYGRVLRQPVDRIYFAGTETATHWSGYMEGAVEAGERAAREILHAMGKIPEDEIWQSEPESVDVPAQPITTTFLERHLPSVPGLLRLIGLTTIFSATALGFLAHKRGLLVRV
pIC50: −log10 of the molar value.
Returns one of satisfied or not satisfied; satisfied when pIC50 is >= 4.

Compound: O=C(CNC1CC1c1ccc(Br)cc1)N1CCNCC1 (racemic)
Label: satisfied
--
Compound: CN1CCN(C(=O)CNC2CC2c2ccc(-c3ccc(F)nc3)cc2)CC1 (racemic) [Compound 2, reference compound]
Label: not satisfied
--
Compound: O=C(CNNC1CC1c1ccccc1)N1CCNCC1 (racemic)
Label: not satisfied
--
Compound: COc1ccccc1C=NC1CC1c1ccc(Br)cc1 (racemic)
Label: satisfied
--
Compound: O=C(CNC1CC1c1ccc(Br)cc1)N1CCCCC1 (racemic)
Label: satisfied
--
Compound: CN1CCN(C(=O)CNC2CC2c2ccc(Br)cc2)CC1 (racemic) [Compound 3, reference compound]
Label: satisfied
--
Compound: NC1CC1c1ccc(OCc2ccccc2)cc1 (racemic)
Label: satisfied
